assayConditions: in isopentanol, 283.15 K
quantityName: solubility (mole fraction)

smilesRepr: CC1(C)O[C@@H]2[C@@H](CO[C@@]3(COS(N)(=O)=O)OC(C)(C)O[C@@H]23)O1
quantityName: solubility (mole fraction)
testResult: 0.00401

###

assayConditions: in 2-methoxyethanol, 318.15 K

smilesRepr: CC1(C)O[C@@H]2[C@@H](CO[C@@]3(COS(N)(=O)=O)OC(C)(C)O[C@@H]23)O1
solubility (mole fraction): 0.245

###

assayConditions: in n-butanol, 293.15 K

smilesRepr: CC1(C)O[C@@H]2[C@@H](CO[C@@]3(COS(N)(=O)=O)OC(C)(C)O[C@@H]23)O1
solubility (mole fraction): 0.0103
